Hi there, I'd appreciate the recorded protein stability index for every entry that follows.
B1: ZNF449 (parent)
chain: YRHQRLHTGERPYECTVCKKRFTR

# Variants of: B1
# Assay Details: protein stability index of a GFP-peptide fusion (GPS, HEK-293T) (PSI 1-6); higher = more stable;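 note: lentivirally expressed fusions sorted by FACS into six bins by GFP to DsRed ratio, PSI derived from sequencing read proportions per bin multiplied by bin number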
# Experimental Conditions: c terminus: a fixed tail appended
Answers are plain numbers.

Answered cases to consult:
Variant Name | Val
H3G | 2.28
R5M | 2.25
E10R | 2.81
F22Y | 2.84
F22L | 2.87
R21K | 2.15

Could I get protein stability index for every one of these entries?
1. T23E
2. C18G
3. R24Q
4. H7L
5. C18Y
6. T8E
7. K20P

2.67
3.37
2.31
2.15
2.96
2.24
2.69

Could I get protein stability index for every one of these entries?
1. E14Q
2. E10I
3. C18N
4. R5A
5. R2D
6. R2Q
7. E14V
8. G9D

[2.54, 2.32, 3.43, 2.08, 2.48, 2.12, 2.84, 2.35]
